Consider the following compounds; for each one, report its microsomal CLint.
- run_description: Human Liver Microsomal Stability (Test C)
- Assay type: in vitro ADME
- conditions_used: human, liver microsomes
Please make sure the unit comes right after the number.

Respond only with microsomal CLint recorded for COc1cc(C#N)c(O[C@H]2C[C@]3(C2)C[C@H](C(=O)O)C3)cc1C(=O)N[C@@H]1[C@H]2CC[C@H](C2)[C@@H]1C(=O)NCC1(C)CCC1 (single isomer, unassigned) [Example 7]
23 µL/min/mg

Respond only with microsomal CLint recorded for Cc1cc(F)c(O[C@H]2CC[C@@](C)(C(=O)O)CC2)cc1C(=O)N[C@@H]1[C@H]2CC[C@H](C2)[C@@H]1C(=O)NCC1(C)CCC1 [Example 5]
16 µL/min/mg

Respond only with microsomal CLint recorded for CCOCC1(CNC(=O)[C@H]2[C@@H]3CC[C@@H](C3)[C@H]2NC(=O)c2cc(O[C@H]3CC[C@@](C)(C(=O)O)CC3)c(C#N)cc2OC)CCC1 [Example 104]
59 µL/min/mg

Respond only with microsomal CLint recorded for CCC1(CNC(=O)[C@H]2[C@@H]3CC[C@@H](C3)[C@H]2NC(=O)c2cc(O[C@H]3CC[C@@](C)(C(=O)O)CC3)c(F)cc2OC)CCC1 [Example 617]
120 µL/min/mg

Respond only with microsomal CLint recorded for COc1cc(C#N)c(O[C@H]2CC[C@@](C)(C(=O)O)CC2)cc1C(=O)N[C@@H]1[C@H]2CC[C@H](C2)[C@@H]1C(=O)NCC1C(C)(C)C1(C)C [Example 84]
160 µL/min/mg

Respond only with microsomal CLint recorded for COc1cc(F)c(-c2ccc(C(=O)O)cc2)cc1C(=O)N[C@H]1[C@@H](C(=O)Nc2cc(F)cc(C(F)(F)F)c2)[C@@H]2C=C[C@H]1C2 (racemic) [Example 308]
4.9 µL/min/mg

Respond only with microsomal CLint recorded for COc1cc(Cl)c(O[C@H]2CC[C@@](C)(C(=O)O)CC2)cc1C(=O)N[C@@H]1[C@@H]2CC[C@@H](C2)[C@@H]1C(=O)NCC1(C)CCC1 [Example 410]
20 µL/min/mg

Respond only with microsomal CLint recorded for COC[C@]1(C(=O)O)CC[C@@H](Oc2cc(C(=O)N[C@@H]3[C@H]4CC[C@H](C4)[C@@H]3C(=O)Nc3cccc(S(=O)(=O)C(F)(F)F)c3)c(OC)cc2F)CC1 [Example 482]
56 µL/min/mg

Respond only with microsomal CLint recorded for COc1cc(F)c(Oc2ccc(C(=O)O)cc2)cc1C(=O)N[C@H]1[C@@H](C(=O)Nc2cccc(S(=O)(=O)C(F)(F)F)c2)[C@@H]2C=C[C@H]1C2 (racemic) [Example 484]
9.4 µL/min/mg

Respond only with microsomal CLint recorded for COc1cc(C#N)c(O[C@H]2CC[C@@](C)(C(=O)O)CC2)cc1C(=O)NC1C2CCC(O2)C1C(=O)NCC1(C)CCC1 (single isomer, unassigned) [Example 534]
16 µL/min/mg

Respond only with microsomal CLint recorded for COc1cc(F)c(O[C@H]2CC[C@@H](C(=O)O)CC2)cc1C(=O)N[C@@H]1[C@H]2CC[C@H](C2)[C@@H]1C(=O)Nc1cccc(C(C)C)c1 [Example 196]
40 µL/min/mg

====

- run_description: Solubility (Test F)
- Format: physicochemical
- conditions_used: arithmetic mean if run multiple times
readout_kind: solubility (µM)
Write the answer as a number in µM, unit excluded.

Respond only with solubility recorded for COc1cc(C#N)c(O[C@H]2CC[C@@](C)(C(=O)O)CC2)cc1C(=O)N[C@@H]1[C@H]2CC[C@H](C2)[C@@H]1C(=O)NCC1CC1 [Example 71]
940

Respond only with solubility recorded for COc1cc(F)c(O[C@H]2CC[C@@](C)(C(=O)O)CC2)cc1C(=O)N[C@@H]1[C@H]2CC[C@H](C2)[C@@H]1C(=O)Nc1cccc(S(=O)(=O)C(F)(F)F)c1 [Example 208]
130

Respond only with solubility recorded for COc1cc(F)c(-c2ccn(CCC(=O)O)c(=O)c2)cc1C(=O)N[C@@H]1[C@H]2CC[C@H](C2)[C@@H]1C(=O)Nc1cccc(S(=O)(=O)C(F)(F)F)c1 [Example 249]
190

Respond only with solubility recorded for CCC(C)CNC(=O)C1C2CCC(C2)C1NC(=O)c1cc(OC2CCC(C(=O)O)CC2)c(F)cc1OC (single isomer, unassigned) [Example 203]
1000

====

Consider the following molecules; for each one, report its microsomal CLint.
- run_description: Human Liver Microsomal Stability (Test C)
- Assay type: in vitro ADME
- conditions_used: human, liver microsomes

Respond only with microsomal CLint recorded for COc1cc(F)c(-c2ccc(CCC(=O)O)nc2)cc1C(=O)N[C@@H]1[C@H]2CC[C@H](C2)[C@@H]1C(=O)Nc1cccc(S(=O)(=O)C(F)(F)F)c1 [Example 258]
65 µL/min/mg

Respond only with microsomal CLint recorded for COc1cc(C#N)c(O[C@H]2CC[C@@](C)(C(=O)O)CC2)cc1C(=O)N[C@@H]1[C@H]2CC[C@H](C2)[C@@H]1C(=O)NCC(C)(C)O [Example 76]
< 3 µL/min/mg

Respond only with microsomal CLint recorded for COc1cc(F)c(O[C@H]2CC[C@@H](C(=O)O)CC2)cc1C(=O)N[C@@H]1[C@H]2CC[C@H](C2)[C@@H]1C(=O)Nc1ccc(C)c(C(F)(F)F)c1 [Example 192]
21 µL/min/mg

Respond only with microsomal CLint recorded for COc1cc(F)c(-c2ccc(CCC(=O)O)cc2)cc1C(=O)N[C@@H]1[C@H]2CC[C@H](C2)[C@@H]1C(=O)Nc1cccc(S(=O)(=O)C(F)(F)F)c1 [Example 244]
53 µL/min/mg

Respond only with microsomal CLint recorded for COc1cc(F)c(-c2ncc(CCC(=O)O)cn2)cc1C(=O)N[C@@H]1[C@H]2CC[C@H](C2)[C@@H]1C(=O)Nc1cccc(S(=O)(=O)C(F)(F)F)c1 [Example 323]
58 µL/min/mg

Respond only with microsomal CLint recorded for COc1cc(F)c(O[C@H]2CC[C@@](C)(C(=O)O)CC2)cc1C(=O)Nc1cccc(Cl)c1C(=O)NCC1(C)CCC1 [Example 54]
16 µL/min/mg

====

- system_under_test: UniProt Q9HBX9
- Sequence (Q9HBX9 1-757): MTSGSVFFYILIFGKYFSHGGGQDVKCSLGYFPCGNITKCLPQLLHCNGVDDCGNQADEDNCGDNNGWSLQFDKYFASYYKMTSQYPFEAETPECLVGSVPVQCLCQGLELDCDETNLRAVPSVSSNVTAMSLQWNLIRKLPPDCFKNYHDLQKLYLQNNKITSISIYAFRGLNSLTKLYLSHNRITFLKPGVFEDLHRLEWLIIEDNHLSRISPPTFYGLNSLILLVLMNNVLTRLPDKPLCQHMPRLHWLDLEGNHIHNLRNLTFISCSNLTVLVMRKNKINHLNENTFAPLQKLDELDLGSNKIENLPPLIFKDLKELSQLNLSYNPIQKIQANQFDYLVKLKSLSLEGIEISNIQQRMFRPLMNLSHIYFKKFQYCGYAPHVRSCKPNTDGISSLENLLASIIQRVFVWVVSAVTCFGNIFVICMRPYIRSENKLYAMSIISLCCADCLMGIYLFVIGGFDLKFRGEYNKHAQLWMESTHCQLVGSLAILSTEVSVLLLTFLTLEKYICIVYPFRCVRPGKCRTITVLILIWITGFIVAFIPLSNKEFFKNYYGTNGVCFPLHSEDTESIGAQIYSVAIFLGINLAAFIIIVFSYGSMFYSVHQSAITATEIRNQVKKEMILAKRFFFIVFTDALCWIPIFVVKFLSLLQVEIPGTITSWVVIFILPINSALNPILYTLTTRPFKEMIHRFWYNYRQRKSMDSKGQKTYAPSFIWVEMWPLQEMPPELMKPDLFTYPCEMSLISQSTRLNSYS
- run_description: RXFP1 Hu cAMP (Test A)
- Format: cell-based
- Set-up: expressed in transfected cells; host or cells: Jump-In T-REx CHO-K1 cells (ThermoFisher), induced with 10 ng/ml doxycycline for 24 h
- conditions_used: RXFP1 Hu cAMP
readout_kind: Test A Sinf
Please make sure the unit comes right after the number.

Respond only with Test A Sinf recorded for COc1cc(F)c(O[C@H]2CC[C@@](C)(C(=O)O)CC2)cc1C(=O)NC1CCCCCC1C(=O)Nc1cccc(S(=O)(=O)C(F)(F)F)c1 (single isomer, unassigned)
104%

Respond only with Test A Sinf recorded for COc1cc(F)c(-c2ccc(CCC(=O)O)cc2)cc1C(=O)N[C@H]1[C@@H](C(=O)Nc2cccc(S(=O)(=O)C(F)(F)F)c2)[C@@H]2C=C[C@H]1C2 (racemic)
87%

Respond only with Test A Sinf recorded for COc1cc(F)c(O[C@H]2CC[C@@H](C(=O)O)CC2)cc1C(=O)N[C@@H]1[C@H]2CC[C@H](C2)[C@@H]1C(=O)Nc1cccc(C(F)F)c1
104%

Respond only with Test A Sinf recorded for COc1cc(F)c(O[C@H]2CC[C@@](C)(C(=O)O)CC2)cc1C(=O)N[C@@H]1[C@H]2CC[C@H](C2)[C@@H]1C(=O)Nc1ccc(F)c(S(F)(F)(F)(F)F)c1
114%

Respond only with Test A Sinf recorded for COc1cc(F)c(-c2nc(C(=O)O)co2)cc1C(=O)N[C@H]1[C@@H](C(=O)Nc2cccc(S(=O)(=O)C(F)(F)F)c2)[C@@H]2C=C[C@H]1C2 (racemic)
83%

Respond only with Test A Sinf recorded for COc1cc(F)c(O[C@H]2CC[C@@](C)(C(=O)O)CC2)cc1C(=O)N[C@@H]1[C@H]2CC[C@H](C2)[C@@H]1C(=O)NC12CC(C1)C2
104%

Respond only with Test A Sinf recorded for COc1cc(C#N)c(O[C@H]2CC[C@@](C)(C(=O)O)CC2)cc1C(=O)N[C@@H]1[C@H]2CC[C@H](C2)[C@@H]1C(=O)NCCCOC(C)C
71%

Respond only with Test A Sinf recorded for COc1cc(F)c(O[C@H]2CC[C@@](C)(C(=O)O)CC2)cc1C(=O)NC1CCOCC1C(=O)Nc1cccc(S(=O)(=O)C(F)(F)F)c1 (single isomer, unassigned)
95%

Respond only with Test A Sinf recorded for COc1c(F)cc(O[C@H]2CC[C@@](C)(C(=O)O)CC2)cc1C(=O)N[C@@H]1[C@H]2CC[C@H](C2)[C@@H]1C(=O)NC12CC(F)(C1)C2
95%

Respond only with Test A Sinf recorded for COCC1(CNC(=O)[C@H]2[C@@H]3CC[C@@H](C3)[C@H]2NC(=O)c2cc(O[C@H]3CC[C@@](C)(C(=O)O)CC3)c(F)cc2OC)CCC1
96%

Respond only with Test A Sinf recorded for COc1cc(F)c(O[C@H]2CC[C@@](C)(C(=O)O)CC2)cc1C(=O)N[C@@H]1[C@H]2CC[C@H](C2)[C@@H]1C(=O)N[C@H](C)C(C)(C)C#N
100%
